Catalogue of compounds with associated growth
- System: MDA-MB-435 melanoma
- EXPERIMENT_SUMMARY: NCI-60 one-dose screen, 48 h (100 = growth as untreated, 0 = no growth, -100 = all killed)
- DETAILS: 10 µM unless noted
Compounds without any hit were thinned out: in the full panel of roughly 83,000, 20% have a hit. Calls of active or inactive are those of the source. The calls were made as follows: active = growth percent below 10; inactive = the rest.
MEASUREMENT_TYPE: growth

> print(dat)
                                    compound  measurement.type                     result
 1  COc1cc(-c2ccc[nH]2)[nH]c1/C=C1\N=C(C)C(CC(=O)OCC(C)(C)C)=C1C            growth            -81.9% (active)
 2    Fc1cccc(-c2nc(-c3c[nH]c4ncccc34)cs2)c1            growth  50.4% [100 µM] (inactive)
 3  CC(C)(C)OC(=O)CN1CCc2c(sc3ncnc(N4CCN(c5ccc(F)cc5)CC4)c23)C1            growth           93.3% (inactive)
 4  O=C(Nc1ccc(Nc2ccncc2)cc1)c1ccc(Nc2ccnc3ccc([N+](=O)[O-])cc23)cc1            growth            104% (inactive)
 5  CN1CCN(c2ccc(NC3=CC(=O)c4ncncc4C3=O)cc2)CC1            growth            -90.3% (active)
 6   Cc1cc2oc(/C=C/c3ccccc3)cc(=O)c2c(C)c1Cl            growth           95.9% (inactive)
 7  CCN(CC)C(=O)C1=C(C)NC(=O)NC1c1ccc2c(c1)OCO2 (stereo unspecified)            growth            108% (inactive)
 8  CNC(=O)c1cc(Oc2ccc3c(c2)sc2nc(-c4ccc(NC(=O)[C@@H](NC(=O)OC)C(C)C)cc4)cn23)ccn1            growth           38.5% (inactive)
 9  O=C(/C=C/c1ccco1)Nc1ncc(Cc2cc(Cl)ccc2Cl)s1            growth            -47.3% (active)
10  Brc1ccc(Nc2nc(Nc3cnc4ccccc4c3)c3[nH]cnc3n2)cc1            growth           96.3% (inactive)
11  c1cc(OCCN2CCCCC2)ccc1CNc1ccc2nc(CCC3CCCCC3)[nH]c2c1            growth            -54.2% (active)
